- Experimental Details: Cell viability under prolonged treatment, uninfected MRC5 fibroblasts, NucGreen
- Format: cell-based, Human
- Study Conditions: human, uninfected MRC5 fibroblasts
Metric: viability at 168 h, 0.05 µM (%)
API: value field is a number in %; no unit string.

Exercise: Which value of viability at 168 h, 0.05 µM has been reported for C[C@@H]1O[C@@H](O[C@H]2CC[C@]3(C=O)[C@H]4CC[C@]5(C)[C@@H](C6=CC(=O)OC6)CC[C@]5(O)[C@@H]4CC[C@]3(O)C2)[C@H](O)[C@H](O)[C@H]1O in the records?
Solution: 82

====

- Experimental Details: Cell viability under prolonged treatment, uninfected MRC5 fibroblasts, NucGreen
- Assay type: cell-based, Human
- Study Conditions: human, uninfected MRC5 fibroblasts
Metric: viability at 168 h, 0.01 µM (%)
API: value field is a number in %; no unit string.

Exercise: Which value of viability at 168 h, 0.01 µM has been reported for C[C@@H]1O[C@@H](O[C@H]2CC[C@]3(C=O)[C@H]4CC[C@]5(C)[C@@H](C6=CC(=O)OC6)CC[C@]5(O)[C@@H]4CC[C@]3(O)C2)[C@H](O)[C@H](O)[C@H]1O [Convallatoxin] in the records?
Solution: 91

====

- Experimental Details: CC50 / cell viability by NucGreen staining, MRC5 cells
- Format: cell-based, Human
- Study Conditions: human
Metric: viability at 19 h, 5 µM (%)
API: value field is a number in %; no unit string.

Exercise: Which value of viability at 19 h, 5 µM has been reported for C[C@@H]1O[C@@H](O[C@H]2CC[C@]3(C=O)[C@H]4CC[C@]5(C)[C@@H](C6=CC(=O)OC6)CC[C@]5(O)[C@@H]4CC[C@]3(O)C2)[C@H](O)[C@H](O)[C@H]1O in the records?
Solution: 100

====

- Experimental Details: CC50 / cell viability by NucGreen staining, MRC5 cells
- Format: cell-based, Human
- Study Conditions: human
Counter-ions that a name gives are not always drawn.
Metric: CC50 at 19 h (nM)
API: value field is a number in nM; no unit string.

Exercise: Which value of CC50 at 19 h has been reported for CC[C@]1(O)C[C@H]2CN(CCc3c([nH]c4ccccc34)[C@@](C(=O)OC)(c3cc4c(cc3OC)N(C=O)[C@H]3[C@@](O)(C(=O)OC)[C@H](OC(C)=O)[C@]5(CC)C=CCN6CC[C@]43[C@@H]65)C2)C1 [Vincristine sulfate] in the records?
Solution: 40

Exercise: Which value of CC50 at 19 h has been reported for CC(=O)O[C@@H]1C[C@@]2(C)[C@H](c3ccoc3)C[C@H]3O[C@]32[C@]2(C)C(=O)C(O)=C3C(C)(C)C(=O)C=C[C@]3(C)[C@@H]12 [Anthothecol] in the records?
Solution: 700

====

- Tested on: CMV AD169IE2-YFP
- Experimental Details: High-content screen, IE2-YFP nuclear fluorescence in infected MRC5 cells
- Assay type: cell-based, Human cytomegalovirus
- Study Conditions: Human betaherpesvirus 5, MRC5, 16 h, read-out: YFP Intensity (%)
Counter-ions that a name gives are not always drawn. Numbered stars: 1 amine (or outer) side, 2 acyl side, 3 side chain; on linkers, the order of the positions; unused ones are H or OH. Bridge positions count the residues as written; N and C are the ends. Square brackets hold non-standard residues; d marks the D form. Peptide text beside a SMILES is read from it. I, II: the chains in the order shown. Actinocin(9to1) = Cc1c2oc3c(C)ccc(C(=O)[*:1])c3nc-2c(C(=O)[*:2])c(N)c1=O; NMeV = CN[C@H](C(=O)O)C(C)C; Sar = CNCC(=O)O
Metric: activity at 5.6 µM (%)
API: value field is a number in %; no unit string.

Before answering, review these 3 worked examples.
{"Molecule": "C[C@@H]1C[C@@H]([C@H](O)CC2CC(=O)NC(=O)C2)C(=O)[C@@H](C)C1 [Cycloheximide]", "Readout Unit": "%", "activity at 5.6 µM": 11.2}
{"Molecule": "CC[C@]1(O)C[C@H]2CN(CCc3c([nH]c4ccccc34)[C@@](C(=O)OC)(c3cc4c(cc3OC)N(C=O)[C@H]3[C@@](O)(C(=O)OC)[C@H](OC(C)=O)[C@]5(CC)C=CCN6CC[C@]43[C@@H]65)C2)C1 [Vincristine sulfate]", "Readout Unit": "%", "activity at 5.6 µM": 26.6}
{"Molecule": "CC[C@]1(O)C[C@@H]2CN(CCc3c([nH]c4ccccc34)[C@@](C(=O)OC)(c3cc4c(cc3OC)N(C)[C@H]3[C@@](O)(C(=O)OC)[C@H](OC(C)=O)[C@]5(CC)C=CCN6CC[C@]43[C@@H]65)C2)C1 [Vinblastine sulfate]", "Readout Unit": "%", "activity at 5.6 µM": 24.2}

Exercise: Item: COc1ccc2c(c1OC)C(=O)O[C@@H]2[C@H]1c2c(cc3c(c2OC)OCO3)CCN1C [Noscapine] Test system: CMV AD169IE2-YFP Read-out: activity at 5.6 µM Value: ?
Solution: 106

Exercise: Item: COc1cc2c(c(OC)c1OC)-c1ccc(OC)c(=O)cc1[C@@H](NC(C)=O)CC2 [Colchicine] Test system: CMV AD169IE2-YFP Read-out: activity at 5.6 µM Value: ?
Solution: 17.3

Exercise: Item: COc1cc([C@@H]2c3cc4c(c(O)c3C[C@H]3COC(=O)[C@@H]32)OCO4)cc(OC)c1OC [β-peltatin] Test system: CMV AD169IE2-YFP Read-out: activity at 5.6 µM Value: ?
Solution: 20.5

Exercise: Item: Cc1c2oc3c(C)ccc(C(=O)N[C@@H]4C(=O)N[C@H](C(C)C)C(=O)N5CCC[C@H]5C(=O)N(C)CC(=O)N(C)[C@@H](C(C)C)C(=O)O[C@@H]4C)c3nc-2c(C(=O)N[C@@H]2C(=O)N[C@H](C(C)C)C(=O)N3CCC[C@H]3C(=O)N(C)CC(=O)N(C)[C@@H](C(C)C)C(=O)O[C@@H]2C)c(N)c1=O [Actinomycin D] (I: T[dV]P[Sar][NMeV] / II: T[dV]P[Sar][NMeV]; ester I:1-I:C, II:1-II:C; linker I:N-II:N via Actinocin(9to1)) Test system: CMV AD169IE2-YFP Read-out: activity at 5.6 µM Value: ?
Solution: 5.8

Exercise: Item: CC(=O)O[C@@H]1C[C@@]2(C)[C@H](c3ccoc3)C[C@H]3O[C@]32[C@]2(C)C(=O)C(O)=C3C(C)(C)C(=O)C=C[C@]3(C)[C@@H]12 [Anthothecol] Test system: CMV AD169IE2-YFP Read-out: activity at 5.6 µM Value: ?
Solution: 27.5

Exercise: Item: CN(C)C(=S)SSC(=S)N(C)C [Thiram] Test system: CMV AD169IE2-YFP Read-out: activity at 5.6 µM Value: ?
Solution: 14

Exercise: Item: C[C@@H]1O[C@@H](O[C@H]2CC[C@]3(C=O)[C@H]4CC[C@]5(C)[C@@H](C6=CC(=O)OC6)CC[C@]5(O)[C@@H]4CC[C@]3(O)C2)[C@H](O)[C@H](O)[C@H]1O [Convallatoxin] Test system: CMV AD169IE2-YFP Read-out: activity at 5.6 µM Value: ?
Solution: 27.8

Exercise: Item: COc1cc([C@@H]2c3cc4c(cc3[C@H](O)[C@H]3COC(=O)[C@H]23)OCO4)cc(OC)c1OC [Podofilox] Test system: CMV AD169IE2-YFP Read-out: activity at 5.6 µM Value: ?
Solution: 14.5
